Experiment: Plasma pharmacokinetics of oral terameprocol, GATOR trial
Assay type: in vivo, human
Study conditions: human, plasma, po, 4800 mg, T1/2, oral 4,800 mg fed, cycle 1 day 4, 1 patient
Measured endpoint: half-life (h)

> print(dat)
                           structure.smiles  measured.endpoint  scale.unit  endpoint.value
1  COc1ccc(C[C@@H](C)[C@@H](C)Cc2ccc(OC)c(OC)c2)cc1OC          half-life           h            10.7

###

Experiment: Plasma pharmacokinetics of oral terameprocol, GATOR trial
Assay type: in vivo, human
Study conditions: human, plasma, po, 6000 mg, Cmax, oral 6,000 mg fed, cycle 1 day 1, mean ± SD
Measured endpoint: Cmax (ng/mL)

> print(dat)
                           structure.smiles  endpoint.value
1  COc1ccc(C[C@@H](C)[C@@H](C)Cc2ccc(OC)c(OC)c2)cc1OC             330

###

Experiment: Plasma pharmacokinetics of oral terameprocol, GATOR trial
Format: in vivo, human
Study conditions: human, plasma, po, 1200 mg, T1/2, oral 1,200 mg fasted, cycle 1 day 1, 1 patient
Measured endpoint: half-life

> print(dat)
                           structure.smiles  endpoint.value
1  COc1ccc(C[C@@H](C)[C@@H](C)Cc2ccc(OC)c(OC)c2)cc1OC           1.9 h

###

Experiment: Plasma pharmacokinetics of oral terameprocol, GATOR trial
Format: in vivo, human
Study conditions: human, plasma, po, 1200 mg, Cmax, oral 1,200 mg fasted, cycle 1 day 4, mean ± SD
Measured endpoint: Cmax (ng/mL)

> print(dat)
                           structure.smiles  scale.unit  endpoint.value
1  COc1ccc(C[C@@H](C)[C@@H](C)Cc2ccc(OC)c(OC)c2)cc1OC       ng/mL              30

###

Experiment: Plasma pharmacokinetics of oral terameprocol, GATOR trial
Format: in vivo, human
Study conditions: human, plasma, po, 6000 mg, AUCINF, oral 6,000 mg fasted, cycle 1 day 1, 1 patient
Measured endpoint: AUC(0-inf) (ng·h/mL)

> print(dat)
                           structure.smiles  measured.endpoint  scale.unit  endpoint.value
1  COc1ccc(C[C@@H](C)[C@@H](C)Cc2ccc(OC)c(OC)c2)cc1OC         AUC(0-inf)     ng·h/mL            1900

###

Experiment: Plasma pharmacokinetics of oral terameprocol, GATOR trial
Assay type: in vivo, human
Study conditions: human, plasma, po, 3600 mg, T1/2, oral 3,600 mg fasted, cycle 1 day 4, mean ± SD
Measured endpoint: half-life (h)

> print(dat)
                                   compound  measured.endpoint  scale.unit  endpoint.value
1  COc1ccc(C[C@@H](C)[C@@H](C)Cc2ccc(OC)c(OC)c2)cc1OC [terameprocol]          half-life           h             6.5

###

Experiment: Plasma pharmacokinetics of oral terameprocol, GATOR trial
Type: in vivo, human
Study conditions: human, plasma, po, 3600 mg, Cmax, oral 3,600 mg fasted, cycle 1 day 1, mean ± SD
Measured endpoint: Cmax

> print(dat)
                           structure.smiles  endpoint.value
1  COc1ccc(C[C@@H](C)[C@@H](C)Cc2ccc(OC)c(OC)c2)cc1OC       280 ng/mL

Data origin, for the record: paper PMC11293336
